Tested on: Mycobacterium tuberculosis
measurement description: Antimycobacterial activity against Mycobacterium tuberculosis H37Rv
Type: functional, organism-based
// reported MIC for each item listed
Give the value in µM but do not write µM after it.

Recorded results for 2 compounds are shown here.
1) C[C@H]1[C@H](C)CC[C@]2(COC(=O)/C=C/c3ccccc3)CC[C@]3(C)C(=CC[C@@H]4[C@@]5(C)CCCNC(C)(C)[C@@H]5CC[C@]43C)[C@@H]12	6.25
2) NCC[C@H](O)C(=O)N[C@@H]1C[C@H](N)[C@@H](O[C@H]2O[C@H](CN)[C@@H](O)[C@H](O)[C@H]2O)[C@H](O)[C@H]1O[C@H]1O[C@H](CO)[C@@H](O)[C@H](N)[C@H]1O	0.16

Could you now consider this next compound?
Note to self: MIC recorded for COC(=O)[C@]12CC[C@@H](C(C)COC(=O)CCC(=O)O)[C@@H]1[C@H]1CC[C@@H]3[C@@]4(C)CCC(=O)NC(C)(C)[C@@H]4CC[C@@]3(C)[C@]1(C)CC2 (stereo partly drawn) was 28

###

// reported MIC for each item listed
System: Mycobacterium tuberculosis
measurement description: Antimycobacterial activity against Mycobacterium tuberculosis H37Rv
Format: functional, organism-based

1. COC(=O)[C@]12CCC(C)(C)C[C@@H]1C1=CC[C@@H]3[C@@]4(C)CCC(=O)NC(C)(C)[C@@H]4CC[C@@]3(C)[C@]1(C)CC2	> 10 µM
2. C=C(C)[C@@H]1CC[C@]2(COC(=O)/C=C/c3ccc(OC)cc3)CC[C@]3(C)[C@H](CC[C@@H]4[C@@]5(C)CCCNC(C)(C)[C@@H]5CC[C@]43C)[C@@H]12	> 200 µM

Could you now consider this next molecule?
Note to self: MIC recorded for COC(=O)[C@]12CC[C@@H](C)[C@H](C)[C@@H]1C1=CC[C@@H]3[C@@]4(C)CCC(=O)NC(C)(C)[C@@H]4CC[C@@]3(C)[C@]1(C)CC2 was > 10 µM
